Source: patent US20240368267A1

Target: T1, human IL-6 (human, UniProt P05231 30-212)
T1 construct: also called interleukin-6
T1 sequence (P05231 30-212 limits assumed): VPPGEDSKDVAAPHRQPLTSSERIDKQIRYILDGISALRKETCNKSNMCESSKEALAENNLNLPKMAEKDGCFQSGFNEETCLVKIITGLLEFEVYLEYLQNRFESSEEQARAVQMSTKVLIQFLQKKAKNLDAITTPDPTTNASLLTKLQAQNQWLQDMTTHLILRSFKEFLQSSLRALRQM
Assay: SPR (Biacore T200), antibody from cell supernatant captured on Protein A, IL-6 flowed over, 37 C
# key: entry, value: log10 koff
Friendly reminder: values = log10 of koff, unit s⁻¹.

Reference set, count: 5
anti-IL-6 antibody, heavy chain I51A, G66D / light chain WT (antibody, human IgG1, V domains shown, Derived as m2; Engineered human IgG1) VH: EVQLVESGGGLVQPGGSLRLSCAASGFTFSPFAMSWVRQAPGKGLEWVAKASPGGSWTYYSDTVTDRFTFSLDTSKSTAYLQMNSLRAEDTAVYYCARQLWGYYALDIWGQGTLVTVSS VL: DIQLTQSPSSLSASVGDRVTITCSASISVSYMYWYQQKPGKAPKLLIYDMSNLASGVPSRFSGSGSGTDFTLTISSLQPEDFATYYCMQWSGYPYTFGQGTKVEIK = -3.24
anti-IL-6 antibody, heavy chain T63W, G66D / light chain WT (antibody, human IgG1, V domains shown, Derived as m2; Engineered human IgG1) VH: EVQLVESGGGLVQPGGSLRLSCAASGFTFSPFAMSWVRQAPGKGLEWVAKISPGGSWTYYSDWVTDRFTFSLDTSKSTAYLQMNSLRAEDTAVYYCARQLWGYYALDIWGQGTLVTVSS VL: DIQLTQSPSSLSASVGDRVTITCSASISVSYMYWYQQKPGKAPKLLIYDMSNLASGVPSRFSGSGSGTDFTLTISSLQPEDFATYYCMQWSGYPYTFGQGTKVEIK = -3.37
anti-IL-6 antibody, heavy chain WT / light chain WT (antibody, human IgG1, V domains shown, Full antibody on an engineered human IgG1 framework, Fc with L234A, L235A, G237A and L443C (EU numbering), expressed in Expi293 cells; also called wild-type; parent molecule) VH: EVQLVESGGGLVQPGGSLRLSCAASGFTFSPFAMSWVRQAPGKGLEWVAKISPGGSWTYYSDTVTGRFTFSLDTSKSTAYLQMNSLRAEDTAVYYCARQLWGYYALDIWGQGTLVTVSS VL: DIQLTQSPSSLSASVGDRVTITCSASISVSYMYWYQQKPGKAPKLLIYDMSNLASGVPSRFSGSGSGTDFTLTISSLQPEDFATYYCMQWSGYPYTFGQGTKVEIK = -3.59
anti-IL-6 antibody, heavy chain S35K, G66D / light chain WT (antibody, human IgG1, V domains shown, Derived as m2; Engineered human IgG1) VH: EVQLVESGGGLVQPGGSLRLSCAASGFTFSPFAMKWVRQAPGKGLEWVAKISPGGSWTYYSDTVTDRFTFSLDTSKSTAYLQMNSLRAEDTAVYYCARQLWGYYALDIWGQGTLVTVSS VL: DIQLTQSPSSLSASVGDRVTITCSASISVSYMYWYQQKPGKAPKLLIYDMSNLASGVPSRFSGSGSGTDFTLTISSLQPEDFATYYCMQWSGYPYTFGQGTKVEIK = -3.02
anti-IL-6 antibody, heavy chain S35G, G66D / light chain WT (antibody, human IgG1, V domains shown, Derived as m2; Engineered human IgG1) VH: EVQLVESGGGLVQPGGSLRLSCAASGFTFSPFAMGWVRQAPGKGLEWVAKISPGGSWTYYSDTVTDRFTFSLDTSKSTAYLQMNSLRAEDTAVYYCARQLWGYYALDIWGQGTLVTVSS VL: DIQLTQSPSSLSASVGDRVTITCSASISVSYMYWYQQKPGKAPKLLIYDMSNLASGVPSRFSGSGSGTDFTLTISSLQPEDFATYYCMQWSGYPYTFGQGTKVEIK = -3.44

Recorded log10 koff for anti-IL-6 antibody, heavy chain T63Q, G66D / light chain WT (antibody, human IgG1, V domains shown, Derived as m2; Engineered human IgG1) VH: EVQLVESGGGLVQPGGSLRLSCAASGFTFSPFAMSWVRQAPGKGLEWVAKISPGGSWTYYSDQVTDRFTFSLDTSKSTAYLQMNSLRAEDTAVYYCARQLWGYYALDIWGQGTLVTVSS VL: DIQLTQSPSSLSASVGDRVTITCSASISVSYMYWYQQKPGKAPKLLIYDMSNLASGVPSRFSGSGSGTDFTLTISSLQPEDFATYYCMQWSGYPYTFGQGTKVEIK , please? -3.39
